- Test system: human red blood cells (RBCs)
- Assay remarks: Hemolysis assay
- Type: cell-based
- Conditions used: red cells of human, 1 h, 256
Where a SMILES comes first, the peptide text is derived from it.
Endpoint: Percentage of hemolysis at 256 μg/mL (%)
API: value field is a number in %; no unit string.

Example cases with answers are listed next.
1. CC[C@H](C)[C@H](NC(=O)[C@H](CCCCN)NC(=O)[C@H](CCCCN)NC(=O)[C@@H](NC(=O)[C@@H](NC(=O)[C@H](CC(=O)O)NC(=O)[C@H](Cc1ccccc1)NC(=O)[C@H](CC(C)C)NC(=O)CN)[C@@H](C)CC)[C@@H](C)CC)C(=O)N[C@@H](C)C(=O)N[C@@H](C)C(=O)N[C@@H](CO)C(=O)N[C@@H](Cc1ccccc1)C(N)=O [Peptide E11A] (H-GLFDIIKKIAASF-NH2)
40.2
2. CC[C@H](C)[C@H](NC(=O)[C@H](C)NC(=O)[C@H](Cc1ccccc1)NC(=O)[C@H](CC(C)C)NC(=O)CN)C(=O)N[C@H](C(=O)N[C@@H](CCCCN)C(=O)N[C@@H](CCCCN)C(=O)N[C@H](C(=O)N[C@@H](C)C(=O)N[C@@H](CCC(=O)O)C(=O)N[C@@H](CO)C(=O)N[C@@H](Cc1ccccc1)C(N)=O)[C@@H](C)CC)[C@@H](C)CC [Peptide D4A] (H-GLFAIIKKIAESF-NH2)
61.0

Attention now shifts to the item below.
# query: Percentage of hemolysis at 256 μg/mL of entry CC[C@H](C)[C@H](NC(=O)[C@H](CCCCN)NC(=O)[C@H](CCCCN)NC(=O)[C@@H](NC(=O)[C@@H](NC(=O)[C@H](CC(=O)O)NC(=O)[C@H](Cc1ccccc1)NC(=O)[C@H](CC(C)C)NC(=O)CN)[C@@H](C)CC)[C@@H](C)CC)C(=O)N[C@@H](C)C(=O)N[C@@H](CCC(=O)O)C(=O)N[C@@H](CO)C(=O)N[C@@H](C)C(N)=O [Peptide F13A] (H-GLFDIIKKIAESA-NH2)
0.0

====

Listing of entries alongside the reported MBIC, C. albicans ATCC 10231.
- Test system: C. albicans ATCC 10231 biofilm formation
- Assay type: cell-based, Candida albicans
- Conditions used: ATCC 10231, 24 h
Where a SMILES comes first, the peptide text is derived from it.
Remember to quote the unit after the number.

1) CC[C@H](C)[C@H](NC(=O)[C@H](CCCCN)NC(=O)[C@H](CCCCN)NC(=O)[C@@H](NC(=O)[C@@H](NC(=O)[C@H](CC(=O)O)NC(=O)[C@H](Cc1ccccc1)NC(=O)[C@H](CC(C)C)NC(=O)CN)[C@@H](C)CC)[C@@H](C)CC)C(=O)N[C@@H](C)C(=O)N[C@@H](C)C(=O)N[C@@H](CO)C(=O)N[C@@H](Cc1ccccc1)C(N)=O [Peptide E11A] (H-GLFDIIKKIAASF-NH2)
4 µg/mL

Attention now shifts to the item below.
Observed MBIC, C. albicans ATCC 10231 on C. albicans ATCC 10231 biofilm formation for CC[C@H](C)[C@H](NC(=O)[C@H](CCCCN)NC(=O)[C@H](CCCCN)NC(=O)[C@@H](NC(=O)[C@@H](NC(=O)[C@H](CC(=O)O)NC(=O)[C@H](Cc1ccccc1)NC(=O)[C@H](CC(C)C)NC(=O)CN)[C@@H](C)CC)[C@@H](C)CC)C(=O)N[C@@H](C)C(=O)N[C@@H](CCC(=O)O)C(=O)N[C@@H](CO)C(=O)N[C@@H](Cc1ccccc1)C(N)=O [aurein 1.2] (H-GLFDIIKKIAESF-NH2) , please.
2 µg/mL

====

- Test system: human red blood cells (RBCs)
- Assay remarks: Hemolysis assay
- Assay type: cell-based
- Conditions used: red cells of human, 1 h, 2
Where a SMILES comes first, the peptide text is derived from it.
Endpoint: Percentage of hemolysis at 2 μg/mL (%)
API: value field is a number in %; no unit string.

1) CC[C@H](C)[C@H](NC(=O)[C@H](CCCCN)NC(=O)[C@H](CCCCN)NC(=O)[C@@H](NC(=O)[C@@H](NC(=O)[C@H](CC(=O)O)NC(=O)[C@H](C)NC(=O)[C@H](CC(C)C)NC(=O)CN)[C@@H](C)CC)[C@@H](C)CC)C(=O)N[C@@H](C)C(=O)N[C@@H](CCC(=O)O)C(=O)N[C@@H](CO)C(=O)N[C@@H](Cc1ccccc1)C(N)=O [Peptide F3A] (H-GLADIIKKIAESF-NH2)
0.1

Attention now shifts to the item below.
# query: Percentage of hemolysis at 2 μg/mL of entry CC[C@H](C)[C@H](NC(=O)[C@H](C)NC(=O)[C@H](CCCCN)NC(=O)[C@@H](NC(=O)[C@@H](NC(=O)[C@H](CC(=O)O)NC(=O)[C@H](Cc1ccccc1)NC(=O)[C@H](CC(C)C)NC(=O)CN)[C@@H](C)CC)[C@@H](C)CC)C(=O)N[C@@H](C)C(=O)N[C@@H](CCC(=O)O)C(=O)N[C@@H](CO)C(=O)N[C@@H](Cc1ccccc1)C(N)=O [Peptide K8A] (H-GLFDIIKAIAESF-NH2)
0.0

====

- Tested on: human red blood cells (RBCs)
- Assay remarks: Hemolysis assay
- Type: cell-based
- Conditions used: red cells of human, 1 h, 32
Where a SMILES comes first, the peptide text is derived from it.
Listing of entries alongside the reported Percentage of hemolysis at 32 μg/mL.
API: value field is a number in %; no unit string.

Example cases with answers are listed next.
1. CC[C@H](C)[C@H](NC(=O)[C@H](CCCCN)NC(=O)[C@H](CCCCN)NC(=O)[C@@H](NC(=O)[C@@H](NC(=O)[C@H](CC(=O)O)NC(=O)[C@H](Cc1ccccc1)NC(=O)[C@H](CC(C)C)NC(=O)[C@H](C)N)[C@@H](C)CC)[C@@H](C)CC)C(=O)N[C@@H](C)C(=O)N[C@@H](CCC(=O)O)C(=O)N[C@@H](CO)C(=O)N[C@@H](Cc1ccccc1)C(N)=O [Peptide G1A] (H-ALFDIIKKIAESF-NH2)
0.0
2. CC[C@H](C)[C@H](NC(=O)[C@H](CCCCN)NC(=O)[C@H](C)NC(=O)[C@@H](NC(=O)[C@@H](NC(=O)[C@H](CC(=O)O)NC(=O)[C@H](Cc1ccccc1)NC(=O)[C@H](CC(C)C)NC(=O)CN)[C@@H](C)CC)[C@@H](C)CC)C(=O)N[C@@H](C)C(=O)N[C@@H](CCC(=O)O)C(=O)N[C@@H](CO)C(=O)N[C@@H](Cc1ccccc1)C(N)=O [Peptide K7A] (H-GLFDIIAKIAESF-NH2)
3.4

Attention now shifts to the item below.
# query: Percentage of hemolysis at 32 μg/mL of entry CC[C@H](C)[C@H](NC(=O)[C@H](C)NC(=O)[C@H](CC(=O)O)NC(=O)[C@H](Cc1ccccc1)NC(=O)[C@H](CC(C)C)NC(=O)CN)C(=O)N[C@@H](CCCCN)C(=O)N[C@@H](CCCCN)C(=O)N[C@H](C(=O)N[C@@H](C)C(=O)N[C@@H](CCC(=O)O)C(=O)N[C@@H](CO)C(=O)N[C@@H](Cc1ccccc1)C(N)=O)[C@@H](C)CC [Peptide I5A] (H-GLFDAIKKIAESF-NH2)
0.0

====

- Tested on: human red blood cells (RBCs)
- Assay remarks: Hemolysis assay
- Type: cell-based
- Conditions used: red cells of human, 1 h, 1
- Method: The hemolytic activity of the peptides was determined using fresh human red blood cells (RBCs) collected from a healthy human donor according to the procedure described in the literature. […] After centrifugation, the supernatant was carefully […] to new microtiter plates and the release of hemoglobin was measured at 540 nm (Multiskan™ GO Microplate Spectrophotometer, Thermo Scientific). […]
Where a SMILES comes first, the peptide text is derived from it.
Listing of entries alongside the reported Percentage of hemolysis at 1 μg/mL.
API: value field is a number in %; no unit string.

1. CC[C@H](C)[C@H](NC(=O)[C@H](CCCCN)NC(=O)[C@H](CCCCN)NC(=O)[C@@H](NC(=O)[C@@H](NC(=O)[C@H](CC(=O)O)NC(=O)[C@H](Cc1ccccc1)NC(=O)[C@H](CC(C)C)NC(=O)CN)[C@@H](C)CC)[C@@H](C)CC)C(=O)N[C@@H](C)C(=O)N[C@@H](CCC(=O)O)C(=O)N[C@@H](CO)C(=O)N[C@@H](Cc1ccccc1)C(N)=O [aurein 1.2] (H-GLFDIIKKIAESF-NH2)
0.0

# query: Percentage of hemolysis at 1 μg/mL of entry CC[C@H](C)[C@H](NC(=O)[C@H](CCCCN)NC(=O)[C@H](C)NC(=O)[C@@H](NC(=O)[C@@H](NC(=O)[C@H](CC(=O)O)NC(=O)[C@H](Cc1ccccc1)NC(=O)[C@H](CC(C)C)NC(=O)CN)[C@@H](C)CC)[C@@H](C)CC)C(=O)N[C@@H](C)C(=O)N[C@@H](CCC(=O)O)C(=O)N[C@@H](CO)C(=O)N[C@@H](Cc1ccccc1)C(N)=O [Peptide K7A] (H-GLFDIIAKIAESF-NH2)
0.2

# query: Percentage of hemolysis at 1 μg/mL of entry CC[C@H](C)[C@H](NC(=O)[C@H](CCCCN)NC(=O)[C@H](CCCCN)NC(=O)[C@@H](NC(=O)[C@@H](NC(=O)[C@H](CC(=O)O)NC(=O)[C@H](Cc1ccccc1)NC(=O)[C@H](CC(C)C)NC(=O)CN)[C@@H](C)CC)[C@@H](C)CC)C(=O)N[C@@H](C)C(=O)N[C@@H](CCC(=O)O)C(=O)N[C@@H](C)C(=O)N[C@@H](Cc1ccccc1)C(N)=O [Peptide S12A] (H-GLFDIIKKIAEAF-NH2)
0.0

# query: Percentage of hemolysis at 1 μg/mL of entry CC[C@H](C)[C@H](NC(=O)[C@H](CCCCN)NC(=O)[C@H](CCCCN)NC(=O)[C@@H](NC(=O)[C@@H](NC(=O)[C@H](CC(=O)O)NC(=O)[C@H](C)NC(=O)[C@H](CC(C)C)NC(=O)CN)[C@@H](C)CC)[C@@H](C)CC)C(=O)N[C@@H](C)C(=O)N[C@@H](CCC(=O)O)C(=O)N[C@@H](CO)C(=O)N[C@@H](Cc1ccccc1)C(N)=O [Peptide F3A] (H-GLADIIKKIAESF-NH2)
0.1

# query: Percentage of hemolysis at 1 μg/mL of entry CC[C@H](C)[C@H](NC(=O)[C@H](C)NC(=O)[C@H](CC(=O)O)NC(=O)[C@H](Cc1ccccc1)NC(=O)[C@H](CC(C)C)NC(=O)CN)C(=O)N[C@@H](CCCCN)C(=O)N[C@@H](CCCCN)C(=O)N[C@H](C(=O)N[C@@H](C)C(=O)N[C@@H](CCC(=O)O)C(=O)N[C@@H](CO)C(=O)N[C@@H](Cc1ccccc1)C(N)=O)[C@@H](C)CC [Peptide I5A] (H-GLFDAIKKIAESF-NH2)
0.2
